Source: ChEMBL document CHEMBL4382203

pKi: −log10 of the molar value.
What follows is a record of pKi for Acetylcholine-binding protein (Lymnaea stagnalis, UniProt P58154).
assay_readout: pKi

OCCC#Cc1cncc(OCC2(Cc3cccc(Cl)c3)CCCNC2)c1 (stereo not given)
8.25
Clc1cccc(CC2(COc3ccncc3)CCCNC2)c1 (stereo not given)
7.78
OCCCC#Cc1cncc(OCC2(Cc3cccc(Cl)c3)CCCNC2)c1 (stereo not given)
7.90

* * *

Catalogue of Efficacy values
Target: Neuronal acetylcholine receptor subunit alpha-7 (Homo sapiens, UniProt P36544)
Sequence (P36544 whole entry): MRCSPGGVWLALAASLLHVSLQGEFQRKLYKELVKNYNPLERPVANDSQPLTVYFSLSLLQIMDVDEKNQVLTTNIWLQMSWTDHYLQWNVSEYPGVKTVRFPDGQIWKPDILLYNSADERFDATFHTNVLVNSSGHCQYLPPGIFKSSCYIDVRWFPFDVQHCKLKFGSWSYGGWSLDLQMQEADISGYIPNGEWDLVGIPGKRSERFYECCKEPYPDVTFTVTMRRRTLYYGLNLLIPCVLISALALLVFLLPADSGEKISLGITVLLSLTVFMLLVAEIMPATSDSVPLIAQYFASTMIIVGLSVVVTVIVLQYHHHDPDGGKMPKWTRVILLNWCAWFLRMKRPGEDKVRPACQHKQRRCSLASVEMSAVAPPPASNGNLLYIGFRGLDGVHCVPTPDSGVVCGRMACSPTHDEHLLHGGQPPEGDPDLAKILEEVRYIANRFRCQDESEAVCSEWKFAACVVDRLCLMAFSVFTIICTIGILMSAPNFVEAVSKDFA
Assay: Partial agonist activity at human alpha7 nAChR at 100 uM at -60 mV holding potential incubated for 1 sec followed by 60 secs compound washout relative to acetylcholine
assay_readout: Efficacy (%)

Cc1ccccc1CC1(COc2cccnc2)CCCNC1 (stereo unspecified)
12.8
FC(F)(F)c1cccc(CC2(COc3cccnc3)CCCNC2)c1 (stereo unspecified)
28
Clc1ccc(C[C@]2(COc3cccnc3)CCCNC2)cc1Cl
5.5
OCCCCC#Cc1cncc(OCC2(Cc3cccc(Cl)c3)CCCNC2)c1 (stereo unspecified)
4.5
Clc1ccc(CC2(COc3cccnc3)CCNCC2)cc1Cl
3.1
Clc1cccc(CC2(COc3ccc(Cl)nc3)CCCNC2)c1 (stereo unspecified)
4.4
